All values here come from patent US7855205B2.

Target: Aurora-A (Mus musculus, UniProt P97477)
Construct: made in house; host or cells: sf9 insect cells
Sequence (P97477 1-395): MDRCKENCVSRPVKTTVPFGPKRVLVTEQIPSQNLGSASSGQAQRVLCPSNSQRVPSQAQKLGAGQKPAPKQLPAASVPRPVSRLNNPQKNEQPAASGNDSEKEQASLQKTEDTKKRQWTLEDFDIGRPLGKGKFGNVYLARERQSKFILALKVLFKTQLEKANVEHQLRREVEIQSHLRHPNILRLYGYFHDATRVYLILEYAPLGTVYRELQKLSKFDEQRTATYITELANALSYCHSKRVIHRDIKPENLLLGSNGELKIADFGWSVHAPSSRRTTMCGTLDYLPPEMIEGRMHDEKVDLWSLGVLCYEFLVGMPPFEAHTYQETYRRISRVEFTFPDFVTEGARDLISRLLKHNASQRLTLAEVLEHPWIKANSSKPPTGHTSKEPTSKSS
Assay: Aurora-A Screening Assay
Assay type: biochemical, murine
Conditions: 33P-γ-ATP incorporation, 10 μM ATP
READOUT LABEL: IC50 (µM)

The examples below pair each entry with its known result.
COMPOUND: Cc1ccc(Nc2nccc(-c3c[nH]c4ncccc34)n2)cc1
READOUT UNITS: µM
IC50: 0.29
//
COMPOUND: OCCn1cc(-c2ccnc(N[C@H]3CC[C@H](O)CC3)n2)c2cccnc21
READOUT UNITS: µM
IC50: 6.06

P = N[C@H]1CC[C@H](Nc2nccc(-c3c[nH]c4ncccc34)n2)CC1
Q = Cc1cccc(C)c1Nc1nccc(-c2c[nH]c3ncccc23)n1
R = Cc1[nH]c2ncccc2c1-c1ccnc(N[C@H]2CC[C@H](N)CC2)n1
S = NC1CCC(Nc2nccc(-c3c[nH]c4ncccc34)n2)CC1 (mixture of isomers)
Sort low-to-high on IC50, please. Note for the reader: the ranking is given by listing the labels in the order requested.
S, Q, P, R

###

target: CDK1:Cyclin-B (Homo sapiens, UniProt P06493); construct: purchased New England Biolabs, Beverly, Mass; 6020; host or cells: insect cells; assay: CDK1 Screening Assay; type: biochemical; details: 33P-γ-ATP incorporation, 10 μM ATP
Sequence (P06493 whole entry): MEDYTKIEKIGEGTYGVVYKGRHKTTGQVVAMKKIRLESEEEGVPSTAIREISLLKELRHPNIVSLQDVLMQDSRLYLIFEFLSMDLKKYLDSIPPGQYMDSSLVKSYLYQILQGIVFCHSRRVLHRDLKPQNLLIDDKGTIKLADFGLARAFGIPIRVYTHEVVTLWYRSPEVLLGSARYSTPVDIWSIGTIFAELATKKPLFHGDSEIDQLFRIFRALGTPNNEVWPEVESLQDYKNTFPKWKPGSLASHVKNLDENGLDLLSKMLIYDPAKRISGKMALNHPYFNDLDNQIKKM
Sequence (P14635 whole entry partner): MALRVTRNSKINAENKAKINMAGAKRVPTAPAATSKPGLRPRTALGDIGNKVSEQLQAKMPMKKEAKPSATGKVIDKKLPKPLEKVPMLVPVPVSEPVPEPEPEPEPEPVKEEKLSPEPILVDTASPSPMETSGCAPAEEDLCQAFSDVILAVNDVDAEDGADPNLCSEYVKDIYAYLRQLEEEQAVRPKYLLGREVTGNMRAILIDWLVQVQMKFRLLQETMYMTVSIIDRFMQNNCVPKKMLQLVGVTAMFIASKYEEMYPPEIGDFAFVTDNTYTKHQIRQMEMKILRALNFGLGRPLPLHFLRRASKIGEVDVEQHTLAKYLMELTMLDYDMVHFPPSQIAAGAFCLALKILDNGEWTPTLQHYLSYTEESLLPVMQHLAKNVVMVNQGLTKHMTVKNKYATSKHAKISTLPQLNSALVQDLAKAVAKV
READOUT LABEL: IC50 (µM)

The examples below pair each entry with its known result.
SMILES TEXT: CS(=O)(=O)n1cc(-c2ccnc(NC3CCCCC3)n2)c2cccnc21
IC50, µM: 0.128
//
SMILES TEXT: c1ccc(Nc2nccc(-c3c[nH]c4ncccc34)n2)cc1
IC50, µM: 0.054
//
SMILES TEXT: Clc1ccccc1Nc1nccc(-c2c[nH]c3ncccc23)n1
IC50, µM: 0.0092

1 = c1cnc2[nH]cc(-c3ccnc(Nc4ccc(CCN5CCOCC5)cc4)n3)c2c1
2 = Cc1cc(OCCN(C)C)ccc1Nc1nccc(-c2c[nH]c3ncccc23)n1
In the pair 1 and 2 , the larger recorded IC50 belongs to which? Select an item and report its label.
2
(2: 1.87 µM, 1: 0.074 µM)

###

molecular target: CDK1:Cyclin-B (Homo sapiens, UniProt P06493); construct: purchased New England Biolabs, Beverly, Mass; 6020; host or cells: insect cells; assay: CDK1 Screening Assay; assay type: biochemical; conditions: 33P-γ-ATP incorporation, 10 μM ATP
READOUT LABEL: IC50 (µM)

The examples below pair each entry with its known result.
COMPOUND: CN(C)CC(O)Cn1cc(-c2ccnc(N[C@H]3CC[C@H](O)CC3)n2)c2cccnc21 (relative stereo) [Cpd 76]
READOUT UNITS: µM
IC50: 1.35
//
COMPOUND: c1cnc2[nH]cc(-c3ccnc(NC4CCCCCC4)n3)c2c1 [Cpd 15]
READOUT UNITS: µM
IC50: 0.012

P = Clc1ccc(Nc2nccc(-c3c[nH]c4ncccc34)n2)c(Cl)c1 [Cpd 36]
Q = OCC[C@H]1CC[C@H](Nc2nccc(-c3c[nH]c4ncccc34)n2)CC1 [Cpd 77]
R = CN(C)CCc1ccc(Nc2nccc(-c3c[nH]c4ncccc34)n2)c(Cl)c1 [Cpd 54]
Sort low-to-high on IC50, please. Note for the reader: the ranking is given by listing the labels in the order requested.
Q, P, R
(Q: 0.0028 µM, P: 0.0223 µM, R: 0.0612 µM)
